- Test system: 1205 Lu melanoma cells
- Test method notes: MTS cell viability assay, 1205 Lu melanoma cells
- Assay type: cell-based, human
- Condition description: free drug in DMSO, 24 hours treatment, read-out: half-maximal inhibitory concentration (IC50), cell viability
- Experimental: Human fibroblast FF2441 cells and metastatic melanoma cell lines UACC 903 and 1205 Lu were maintained in DMEM (Invitrogen), supplemented with 10% FBS (Hyclone). Cell lines were maintained in a 37° C. humidified 5% CO2 atmosphere incubator and periodically monitored for phenotypic and genotypic characteristics, and for tumorigenic potential. […] IC50 values were calculated using Prism 4.0 GraphPad Software. […]
Test readout: IC50 (µM)
Supply the numeric figure in µM, leaving out any unit text.

The reported IC50 of the compound `CC(C)c1ccc2c(c1)CC[C@H]1[C@](C)(CN)CCC[C@]21C` was 3.8

Data provenance: patent US9999603B2
